Data provenance is PubChem BioAssay AID248.

Tested on: L1210 leukemia ip in BDF1 mice, survival T/C
test_protocol: NCI In Vivo Anticancer Drug Screen. Data for tumor model L1210 Leukemia (intraperitoneal) in B6D2F1 (BDF1) mice
test_conditions: endpoint: mean survival time; dose: 25.0 mg/kg/injection; schedule: Q04DX002 (ip); vehicle: Klucel (hydroxypropylcellulose) (HPC); higher = longer survival
Toxic doses and inconclusive results are not listed.
# Lookup of reported T/C keyed by entry

Completed entries (count: 4):
{"molecule": "COc1cc(/C=N/N)cc(OC)c1OC", "target": "L1210 leukemia ip in BDF1 mice, survival T/C", "T/C": "117 % of control"}
{"molecule": "CC(=O)[C@@]1(O)CC[C@H]2[C@@H]3C[C@H](C)C4=CC(=O)CC[C@]4(C)[C@H]3[C@@H](O)C[C@@]21C", "target": "L1210 leukemia ip in BDF1 mice, survival T/C", "T/C": "105 % of control"}
{"molecule": "C=C(Br)S(=O)(=O)CC", "target": "L1210 leukemia ip in BDF1 mice, survival T/C", "T/C": "101 % of control"}
{"molecule": "CS(=O)(=O)N1CC(O)CN(S(C)(=O)=O)CC(O)C1 (stereo unspecified)", "target": "L1210 leukemia ip in BDF1 mice, survival T/C", "T/C": "100 % of control"}

Request the reported T/C associated with N#CC(C#N)=Cc1ccc([N+](=O)[O-])s1
100 % of control

Request the reported T/C associated with COC1OC2COC(c3ccccc3)OC2C(OC)C1OC (stereo unspecified)
91 % of control
